Every entry's value here was drawn from patent US20260151494A1.

Listing of recorded RLU by entry.
- testedTarget: T1, human CD71 extracellular domain (human, UniProt P02786 89-760)
- T1 construct: also called hCD71; human CD71-ECD
- T1 sequence (P02786 89-760): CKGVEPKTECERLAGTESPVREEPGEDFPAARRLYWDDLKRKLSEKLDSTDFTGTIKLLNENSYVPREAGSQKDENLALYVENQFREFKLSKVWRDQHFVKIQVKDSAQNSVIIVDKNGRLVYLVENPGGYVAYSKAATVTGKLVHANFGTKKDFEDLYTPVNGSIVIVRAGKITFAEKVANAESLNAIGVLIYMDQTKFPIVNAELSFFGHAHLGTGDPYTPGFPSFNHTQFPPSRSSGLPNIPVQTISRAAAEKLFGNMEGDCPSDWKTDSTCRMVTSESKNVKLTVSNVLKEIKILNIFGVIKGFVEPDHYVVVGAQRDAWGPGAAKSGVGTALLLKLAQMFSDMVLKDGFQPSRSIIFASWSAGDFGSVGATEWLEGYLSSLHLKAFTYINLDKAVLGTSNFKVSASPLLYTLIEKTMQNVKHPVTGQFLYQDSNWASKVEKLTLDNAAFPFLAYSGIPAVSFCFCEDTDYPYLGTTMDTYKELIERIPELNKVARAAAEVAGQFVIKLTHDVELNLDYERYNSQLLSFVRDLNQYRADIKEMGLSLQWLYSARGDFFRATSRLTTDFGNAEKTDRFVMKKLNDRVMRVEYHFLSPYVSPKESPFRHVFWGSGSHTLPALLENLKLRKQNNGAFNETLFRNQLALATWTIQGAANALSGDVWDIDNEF
- measurementProtocol: primary ELISA, luminescence; note: test concentration or dose not given here

binder: CD71-binding FN3 domain of SEQ ID NO: 220 (designed binder) MSLPAPKNLVVSRVTEDSARLSWTAPDAAFDSFEIAYWEQSYTGEAIVLTVPGSERSYDLTGLKPGTEYWVQIGGVKGGNWSAPLSAIFTT
scaleUnit: RLU
RLU: 2.43e+06

binder: CD71-binding FN3 domain of SEQ ID NO: 219 (designed binder, the tag is not included in the chain) MSLPAPKNLVVSRVTEDSARLSWTAPDAAFDSFAIMYGERGNPGEAIVLTVPGSERSYDLTGLKPGTEYAVWIYGVKGGNYSYPLSAIFTT
scaleUnit: RLU
RLU: 3.01e+06

binder: CD71-binding FN3 domain of SEQ ID NO: 230 (designed binder) MSLPAPKNLIVSRVTEDSARLSWTAPDAAFDSLEIGYFENLYLGEAIVLTVPGSERSYDLTGLKPGTEYWVQIGGVKGGNWSAPLSAIFTT
scaleUnit: RLU
RLU: 2.54e+06

binder: CD71-binding FN3 domain of SEQ ID NO: 224 (designed binder) MSLPAPKNLVVSRVTEDSARLSWTAPDAAFDSFEIGYWENAYKGEAIVLTVPGSERSYDLTGLKPGTEYVVFIGGVKGGGWSGPLSAIFTT
scaleUnit: RLU
RLU: 3.1e+06
